assay: chemical genetic growth profiling, strain panel (AID 1159580);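 note: tested at 20 µM; growth read once vehicle control cultures reached saturation at 30 °C; 1 = growth at the plate median or of vehicle wells; lower values mean less growth of the strain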; details: S. cerevisiae deletion strains, growth OD, locus YNL183C, strain NPR1, active compounds read low
In all, about 5,500 compounds went through this assay and about 2,000 (36%) were called active. Roughly 18% stayed inconclusive and do not appear here. The list shows a part of the results.
Entries and their measured normalized growth follow.

[
  {
    "smiles entry": "Oc1c(Cl)cc(Cl)cc1C=Nc1nc(-c2ccc3ccccc3c2)cs1",
    "normalized growth": 0.72
  },
  {
    "smiles entry": "Nc1nc(=S)c2[nH]cnc2[nH]1",
    "normalized growth": 0.956
  },
  {
    "smiles entry": "CC(=O)/C(C#N)=N\\Nc1ccc(F)cc1",
    "normalized growth": 0.147
  },
  {
    "smiles entry": "CCOC(=O)n1ccn(C)c1=S",
    "normalized growth": 0.971
  },
  {
    "smiles entry": "O=C(NC(=O)c1ccccc1Cl)Nc1ccc(OC(F)(F)F)cc1",
    "normalized growth": 0.985
  },
  {
    "smiles entry": "COc1ccc2c(=O)c(-c3ccc(O)cc3)coc2c1",
    "normalized growth": 0.918
  },
  {
    "smiles entry": "Nc1ncn[nH]1",
    "normalized growth": 0.933
  },
  {
    "smiles entry": "O=C(c1csc(-c2ccc(Cl)cc2)c1)N1CCCCC1",
    "normalized growth": 0.801
  },
  {
    "smiles entry": "COc1ccc(-c2coc3cc(O)ccc3c2=O)c(O)c1O",
    "normalized growth": 0.965
  },
  {
    "smiles entry": "O=c1c(-c2ccc(O)cc2)coc2cc(O)ccc12",
    "normalized growth": 0.993
  },
  {
    "smiles entry": "CCC[C@H](N[C@@H](C)C(=O)N1[C@H](C(=O)O)C[C@@H]2CCCC[C@@H]21)C(=O)OCC",
    "normalized growth": 0.963
  },
  {
    "smiles entry": "COc1ccc(-c2coc3cc(OC)ccc3c2=O)cc1",
    "normalized growth": 0.921
  }
]

----------
A collection of molecules and their measured normalized growth
assay: chemical genetic growth profiling, strain panel (AID 1159580);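 note: tested at 20 µM; growth read once vehicle control cultures reached saturation at 30 °C; 1 = growth at the plate median or of vehicle wells; lower values mean less growth of the strain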; details: S. cerevisiae deletion strains, growth OD, locus YMR001C, strain CDC5, active compounds read low
Among all 5,500 compounds or so, about 2,000 (36%) were called active. Another 18% or so got no clear call; they are omitted. The list shows a part of the results.
quantity measured: normalized growth

[
  {
    "molecule": "CC(C)c1ccc(COC(=O)Nc2ccc(CSc3ccc(Cl)cc3)o2)cc1",
    "quantity measured": "normalized growth",
    "test value": 0.983
  },
  {
    "molecule": "CC(C)(C)c1ccc(N/N=C(\\C#N)C(N)=O)cc1",
    "quantity measured": "normalized growth",
    "test value": 0.112
  },
  {
    "molecule": "COc1ccc(C(CC(=O)c2ccccc2)Sc2ccccc2N)cc1OC (stereo unspecified)",
    "quantity measured": "normalized growth",
    "test value": 0.965
  },
  {
    "molecule": "Oc1c(Cl)cc(Cl)cc1C=Nc1nc(-c2ccc3ccccc3c2)cs1",
    "quantity measured": "normalized growth",
    "test value": 0.957
  },
  {
    "molecule": "O=C(Oc1cccc2[nH]ccc12)c1ccc(C(F)(F)F)cc1",
    "quantity measured": "normalized growth",
    "test value": 0.964
  },
  {
    "molecule": "CCOC(=O)C1C(c2c(F)cccc2Cl)C(C(=O)OCC)C(O)(C(F)(F)F)NC1(O)C(F)(F)F (stereo unspecified)",
    "quantity measured": "normalized growth",
    "test value": 0.99
  },
  {
    "molecule": "Cc1cccc(NC(=S)N/N=C\\c2ccc(F)cc2)c1",
    "quantity measured": "normalized growth",
    "test value": 0.965
  },
  {
    "molecule": "O=[N+]([O-])c1ccc(ON=C2CCCCC2)c([N+](=O)[O-])c1",
    "quantity measured": "normalized growth",
    "test value": 0.989
  },
  {
    "molecule": "N#C/C(=N/Nc1ccccc1)C(=O)c1ccccc1OC(F)(F)F",
    "quantity measured": "normalized growth",
    "test value": 0.92
  },
  {
    "molecule": "CC(=O)/C(C#N)=N\\Nc1ccc(F)cc1",
    "quantity measured": "normalized growth",
    "test value": 0.458
  },
  {
    "molecule": "Fc1cc(I)ccc1Nc1ccnc2cc(Cl)ccc12",
    "quantity measured": "normalized growth",
    "test value": 0.985
  },
  {
    "molecule": "Cc1ccc(Nc2ccnc3cc(Cl)ccc23)cc1F",
    "quantity measured": "normalized growth",
    "test value": 0.995
  },
  {
    "molecule": "O=[N+]([O-])c1ccc(-c2noc(-c3ccno3)n2)o1",
    "quantity measured": "normalized growth",
    "test value": 0.093
  },
  {
    "molecule": "Cc1cc(C)cc(Sc2ccc3nnc(-c4ccccc4)n3n2)c1",
    "quantity measured": "normalized growth",
    "test value": 0.981
  },
  {
    "molecule": "O=C(NCc1ccc(Cl)c(Cl)c1)c1cccnc1OCC(F)(F)F",
    "quantity measured": "normalized growth",
    "test value": 0.937
  },
  {
    "molecule": "CCOC(=O)c1ccc2nc(N=CNO)sc2c1",
    "quantity measured": "normalized growth",
    "test value": 0.951
  }
]
